Recorded Activity, one value per entry.
# Assayed System: Receptor-interacting serine/threonine-protein kinase 1 (Homo sapiens)
# Assay Notes: Inhibition of RIPK1 in human FADD-deficient Jurkat I 2.1 cells assessed as protection against TNFalpha-induced necroptosis by measuring remaining viable cells at 10 uM measured after 24 hrs by MTS assay relative to TNFalpha
# Type: cell-based
Field: numeric (%). Do not append units.

Answered cases to consult:
{"Mol Smiles": "CCCCNc1nc2cc([N+](=O)[O-])ccc2s1", "Assayed System": "Receptor-interacting serine/threonine-protein kinase 1 (Homo sapiens)", "Activity, %": 56.1}
{"Mol Smiles": "CCCCNc1nc2ccc(C(=O)OC)cc2[nH]1", "Assayed System": "Receptor-interacting serine/threonine-protein kinase 1 (Homo sapiens)", "Activity, %": 2.9}

Item `CCOC(=O)CNc1nc2ccc([N+](=O)[O-])cc2[nH]1` has what recorded Activity?
15.3

Item `CCCCNc1nc2ccc(C#C[Si](C)(C)C)cc2[nH]1` has what recorded Activity?
-18.5

Item `CCCCCCCCNc1nc2ccc([N+](=O)[O-])cc2[nH]1` has what recorded Activity?
6.4

Item `CCCCNc1nc2cccc(C(=O)OC)c2[nH]1` has what recorded Activity?
29.2

Item `CCCCNc1nc2ccc([N+](=O)[O-])cc2[nH]1` has what recorded Activity?
56.9

Item `CCCCNc1nc2ccc([N+](=O)[O-])cc2s1` has what recorded Activity?
28

Item `CN(C)c1ccc(Nc2nc3ccc([N+](=O)[O-])cc3[nH]2)cc1` has what recorded Activity?
14

Item `C#CCNc1nc2ccc([N+](=O)[O-])cc2[nH]1` has what recorded Activity?
3.4

Item `Oc1ccc(-c2cc3cccnc3[nH]2)cc1` has what recorded Activity?
57.9

---

Recorded Activity, one value per entry.
# Assayed System: Receptor-interacting serine/threonine-protein kinase 1 (Homo sapiens)
# Assay Notes: Inhibition of RIPK1 in human FADD-deficient Jurkat I 2.1 cells assessed as protection against TNFalpha-induced necroptosis by measuring remaining viable cells at 10 uM measured after 24 hrs by MTS assay relative to TNFalpha
# Type: cell-based
Field: numeric (%). Do not append units.

Answered cases to consult:
{"Mol Smiles": "CC(C)Nc1nc2ccc([N+](=O)[O-])cc2[nH]1", "Assayed System": "Receptor-interacting serine/threonine-protein kinase 1 (Homo sapiens)", "Activity, %": 16.2}
{"Mol Smiles": "CCCCNc1nc2ccc(C(=O)NCc3ccccc3)cc2[nH]1", "Assayed System": "Receptor-interacting serine/threonine-protein kinase 1 (Homo sapiens)", "Activity, %": 5}

Item `CCCCNc1nc2ccc(-c3cccs3)cc2[nH]1` has what recorded Activity?
-20.5

---

# Assayed System: Receptor-interacting serine/threonine-protein kinase 1 (Homo sapiens)
# Assay Notes: Inhibition of RIPK1 in human FADD-deficient Jurkat I 2.1 cells assessed as protection against TNFalpha-induced necroptosis by measuring remaining viable cells at 10 uM measured after 24 hrs by MTS assay relative to TNFalpha
# Type: cell-based
Recorded Activity, one value per entry.
Field: numeric (%). Do not append units.

Answered cases to consult:
{"Mol Smiles": "CCCCNc1nc2ccc(-c3cccc([N+](=O)[O-])c3)cc2[nH]1", "Activity, %": -20.6}
{"Mol Smiles": "O=[N+]([O-])c1cccc2nc(Nc3ccccc3)[nH]c12", "Activity, %": 0}
{"Mol Smiles": "CCCCNc1nc2ccc(I)cc2[nH]1", "Activity, %": -16.3}
{"Mol Smiles": "COCCNc1nc2ccc([N+](=O)[O-])cc2[nH]1", "Activity, %": 5.6}
{"Mol Smiles": "CCCCCCNc1nc2ccc([N+](=O)[O-])cc2[nH]1", "Activity, %": 23.6}

Moving on to another compound below.
Item `Cc1ccc2nc(NC3CCCCC3)[nH]c2c1` has what recorded Activity?
7
